Source of measurements: the supplement of paper PMC10307832

Assignment: determine reported relative viability for the given compounds.
System: LOU-NH91
assay details: relative viability (nuclei count vs DMSO), 5 days (fraction); higher = more cells survive
conditions: first compound 8 µM
// return a plain number; no unit text

Write down relative viability measured for item O=c1cc(-c2cccc3c2Sc2ccccc2S3)oc(N2CCOCC2)c1 + COc1cccc2cc(-c3nc([C@H]4CC[C@H](C(=O)O)CC4)n4ncnc(N)c34)[nH]c12 [OSI-027] (partner 0.5 µM)
0.758

Return value of relative viability for input O=c1cc(-c2cccc3c2Sc2ccccc2S3)oc(N2CCOCC2)c1 + O=C(CCCCCCC(=O)Nc1ccccc1)NO [Vorinostat] (partner 1 µM) , no commentary.
0.898

Look up and report measured relative viability for this entry: O=c1cc(-c2cccc3c2Sc2ccccc2S3)oc(N2CCOCC2)c1 + Cc1nc(Nc2ncc(C(=O)Nc3c(C)cccc3Cl)s2)cc(N2CCN(CCO)CC2)n1 [Dasatinib] (partner 0.075 µM)
0.559

State, in one line, measured relative viability of O=c1cc(-c2cccc3c2Sc2ccccc2S3)oc(N2CCOCC2)c1 + CS(=O)(=O)N1CCN(Cc2cc3nc(-c4cccc5[nH]ncc45)nc(N4CCOCC4)c3s2)CC1 [Pictilisib] (partner 1 µM)
0.531

Please give measured relative viability of the following entry: O=c1cc(-c2cccc3c2Sc2ccccc2S3)oc(N2CCOCC2)c1 + Cc1cc(Nc2cc(N3CCN(C)CC3)nc(Sc3ccc(NC(=O)C4CC4)cc3)n2)n[nH]1 [Tozasertib] (partner 0.1 µM)
0.679
